# tgt: Falcilysin (Plasmodium falciparum (isolate 3D7), UniProt Q76NL8)
# Sequence (Q76NL8 whole entry): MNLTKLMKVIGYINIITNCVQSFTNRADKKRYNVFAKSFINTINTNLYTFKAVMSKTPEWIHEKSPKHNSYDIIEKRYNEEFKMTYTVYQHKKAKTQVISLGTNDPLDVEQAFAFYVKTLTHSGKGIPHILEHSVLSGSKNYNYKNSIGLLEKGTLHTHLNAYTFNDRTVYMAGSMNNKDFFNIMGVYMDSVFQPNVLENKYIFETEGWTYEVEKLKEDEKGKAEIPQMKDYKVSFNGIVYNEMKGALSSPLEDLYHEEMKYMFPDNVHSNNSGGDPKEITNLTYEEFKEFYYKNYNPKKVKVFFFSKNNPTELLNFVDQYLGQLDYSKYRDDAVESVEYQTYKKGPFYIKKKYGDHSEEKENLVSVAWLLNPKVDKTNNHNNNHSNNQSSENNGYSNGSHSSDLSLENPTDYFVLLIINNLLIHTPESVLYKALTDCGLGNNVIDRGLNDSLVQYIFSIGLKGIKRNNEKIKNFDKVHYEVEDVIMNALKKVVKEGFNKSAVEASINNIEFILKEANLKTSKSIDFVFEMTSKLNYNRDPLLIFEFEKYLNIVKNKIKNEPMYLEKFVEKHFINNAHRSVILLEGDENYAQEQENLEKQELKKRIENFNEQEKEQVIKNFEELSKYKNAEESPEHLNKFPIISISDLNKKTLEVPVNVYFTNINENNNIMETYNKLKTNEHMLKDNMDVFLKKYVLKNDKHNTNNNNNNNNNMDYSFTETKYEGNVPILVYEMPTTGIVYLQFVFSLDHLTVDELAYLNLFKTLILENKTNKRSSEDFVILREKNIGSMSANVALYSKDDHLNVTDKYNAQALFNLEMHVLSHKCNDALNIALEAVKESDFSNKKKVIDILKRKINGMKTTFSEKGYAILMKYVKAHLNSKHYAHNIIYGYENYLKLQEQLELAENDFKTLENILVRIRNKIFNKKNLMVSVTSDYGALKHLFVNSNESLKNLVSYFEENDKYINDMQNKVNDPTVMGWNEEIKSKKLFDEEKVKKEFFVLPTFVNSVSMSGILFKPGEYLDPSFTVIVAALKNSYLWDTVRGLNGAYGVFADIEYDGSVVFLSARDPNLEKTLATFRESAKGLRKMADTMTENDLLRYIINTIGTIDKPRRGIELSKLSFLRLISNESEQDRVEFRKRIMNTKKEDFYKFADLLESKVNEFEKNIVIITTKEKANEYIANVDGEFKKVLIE
# assay: Inhibition of Plasmodium falciparum FLN
measured_property: pKi
Keep in mind that pKi stands for -log10 of concentration in molar terms.

// query pKi value for entry COC(=O)C1CN(S(=O)(=O)c2ccc(-c3ccccc3)cc2)CCN1S(=O)(=O)c1ccc(-c2ccccc2)cc1 (configuration not stated)
5.60

Input O=C(NO)C1CN(C(=O)c2cccc3ccccc23)CCN1S(=O)(=O)c1ccc(Br)cc1 (configuration not stated)
5.05

And then O=C(NO)C1CN(C(=O)c2ccc(-c3ccccc3)cc2)CCN1S(=O)(=O)c1ccc(Br)cc1 (configuration not stated) , what is it?
5.52

And then CNC(=O)C1CN(S(=O)(=O)c2ccc(I)cc2)CCN1S(=O)(=O)c1ccc(-c2ccccc2)cc1 (configuration not stated) , what is it?
5.59

Can you check CNC(=O)C1CN(S(=O)(=O)c2ccc(-c3ccccc3)cc2)CCN1S(=O)(=O)c1cccc(-c2ccc(C(=O)c3ccccc3)cc2)c1 (configuration not stated) next?
5.77

Subsequent entry: CNC(=O)C1CN(S(=O)(=O)c2ccc(-c3cccnc3OC)cc2)CCN1S(=O)(=O)c1ccc(-c2ccccc2)cc1 (configuration not stated)
5.40

# repeat for O=C(NO)C1CN(S(=O)(=O)c2ccc(-c3ccccc3)cc2)CCN1S(=O)(=O)c1ccc(-c2ccccc2)cc1 (configuration not stated)
6.66

Would you kindly repeat that for O=C(NO)C1CN(C(=O)c2ccc(-c3ccccc3)cc2)CCN1S(=O)(=O)c1ccc(-c2ccsc2)cc1 (configuration not stated) ?
4.96
